These data points were gathered from ChEMBL document CHEMBL1147670.

Target protein (sequence): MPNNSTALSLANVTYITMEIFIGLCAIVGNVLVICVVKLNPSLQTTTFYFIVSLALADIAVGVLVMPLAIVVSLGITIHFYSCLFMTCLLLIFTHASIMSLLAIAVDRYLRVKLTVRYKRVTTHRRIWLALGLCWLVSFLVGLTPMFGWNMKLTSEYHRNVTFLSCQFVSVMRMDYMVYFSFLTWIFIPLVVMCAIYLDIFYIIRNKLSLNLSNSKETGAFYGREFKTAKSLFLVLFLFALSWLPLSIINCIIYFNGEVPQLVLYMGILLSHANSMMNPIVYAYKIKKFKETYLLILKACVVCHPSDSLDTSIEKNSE
PARAMETER MEASURED: Ki (nM)

given_smiles=Clc1ccc(-c2nc(-c3ccccc3)c3[nH]cnc3n2)cc1 observed_measurement=94
given_smiles=COc1ccc(-c2[nH]c(-c3ccccc3)nc3nc(C4CCCCC4)nc2-3)cc1 observed_measurement=138
given_smiles=Cc1ccc(-c2nc(-c3ccccc3)c3[nH]cnc3n2)cc1 observed_measurement=9.4
given_smiles=Cc1ccc(-c2nc(-c3ccc(C)cc3)c3[nH]cnc3n2)cc1 observed_measurement=9.3
given_smiles=Clc1ccc(-c2nc(-c3ccccc3)nc3nc(C4CCCCC4)[nH]c23)cc1 observed_measurement=243
given_smiles=COc1ccc(-c2nc(-c3ccccc3)c3[nH]cnc3n2)cc1 observed_measurement=4
given_smiles=CC(C)c1nc2[nH]c(-c3ccccc3)nc(-c3ccccc3)c-2n1 observed_measurement=9.5

----------
Target protein (sequence): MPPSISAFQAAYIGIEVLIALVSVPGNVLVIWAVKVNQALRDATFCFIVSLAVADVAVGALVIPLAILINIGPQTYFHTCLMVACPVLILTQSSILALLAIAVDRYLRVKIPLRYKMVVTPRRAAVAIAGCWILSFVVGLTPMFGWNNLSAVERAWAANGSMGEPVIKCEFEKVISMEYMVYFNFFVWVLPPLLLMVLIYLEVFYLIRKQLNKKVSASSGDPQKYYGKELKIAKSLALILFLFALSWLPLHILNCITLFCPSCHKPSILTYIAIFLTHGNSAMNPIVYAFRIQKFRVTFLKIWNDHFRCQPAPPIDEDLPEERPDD
pKi: −log10 of the molar value.
The molecules listed here are annotated with their pKi.
PARAMETER MEASURED: pKi

given_smiles=CCCc1nc2nc(-c3ccccc3)nc(-c3ccccc3)c2[nH]1 observed_measurement=8.36
given_smiles=Clc1ccc(-c2nc(-c3ccccc3)c3[nH]cnc3n2)cc1 observed_measurement=7.57
given_smiles=c1ccc(-c2nc(-c3ccccc3)c3nc(C4CCCCC4)nc-3[nH]2)cc1 observed_measurement=9.14
given_smiles=c1ccc(-c2nc(-c3ccccc3)c3[nH]c(-c4ccccc4)nc3n2)cc1 observed_measurement=7.68
given_smiles=Cc1ccc(-c2nc(-c3ccc(C)cc3)c3[nH]cnc3n2)cc1 observed_measurement=6.63
given_smiles=Clc1ccc(-c2[nH]c(-c3ccccc3)nc3nc(C4CCCCC4)nc2-3)cc1Cl observed_measurement=7.43
given_smiles=Cc1ccc(-c2nc(-c3ccccc3)nc3nc(C4CCCCC4)[nH]c23)cc1 observed_measurement=7.44

----------
target: Adenosine receptor A2a (Homo sapiens)
Sequence (P29274 whole entry): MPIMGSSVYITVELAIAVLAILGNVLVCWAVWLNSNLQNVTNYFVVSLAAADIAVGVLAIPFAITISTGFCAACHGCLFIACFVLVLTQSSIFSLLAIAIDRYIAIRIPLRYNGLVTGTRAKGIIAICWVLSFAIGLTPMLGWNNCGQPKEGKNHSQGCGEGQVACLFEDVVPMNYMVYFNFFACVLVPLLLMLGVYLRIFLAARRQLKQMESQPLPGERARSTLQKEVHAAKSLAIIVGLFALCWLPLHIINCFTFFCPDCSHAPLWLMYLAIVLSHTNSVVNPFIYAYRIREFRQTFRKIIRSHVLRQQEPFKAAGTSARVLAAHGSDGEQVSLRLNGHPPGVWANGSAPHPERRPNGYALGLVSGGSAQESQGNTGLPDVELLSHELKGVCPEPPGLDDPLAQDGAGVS
The compounds listed here are annotated with their Ki.
PARAMETER MEASURED: Ki

given_smiles=c1ccc(-c2nc(-c3ccccc3)c3[nH]cnc3n2)cc1 parameter_measured=Ki observed_measurement="53 nM"
given_smiles=Cc1ccc(-c2nc(-c3ccccc3)c3[nH]cnc3n2)cc1 parameter_measured=Ki observed_measurement="289 nM"
given_smiles=CC(C)c1nc2[nH]c(-c3ccccc3)nc(-c3ccccc3)c-2n1 parameter_measured=Ki observed_measurement="148 nM"
given_smiles=CCCc1nc2nc(-c3ccccc3)nc(-c3ccccc3)c2[nH]1 parameter_measured=Ki observed_measurement="167 nM"

----------
molecular target: UniProt:P29274; experiment: Displacement of [3H]ZM 241385 from human adenosine A2a receptor expressed in HEK293 cells at 1 uM; assay type: cell-based
PARAMETER MEASURED: Activity

given_smiles=Cc1ccc(-c2[nH]c(-c3ccccc3)nc3nc(C4CCCCC4)nc2-3)cc1 observed_measurement=9%
given_smiles=COc1ccc(-c2nc(-c3ccc(OC)cc3)c3[nH]cnc3n2)cc1 observed_measurement=37%
given_smiles=COc1ccc(-c2nc(-c3ccccc3)c3[nH]cnc3n2)cc1 observed_measurement=47%
given_smiles=Clc1ccc(-c2[nH]c(-c3ccccc3)nc3nc(C4CCCCC4)nc2-3)cc1Cl observed_measurement=20.3%
given_smiles=Cc1ccc(-c2nc(-c3ccc(C)cc3)c3[nH]cnc3n2)cc1 observed_measurement=4%
given_smiles=Clc1ccc(-c2[nH]c(-c3ccccc3)nc3nc(C4CCCCC4)nc2-3)cc1 observed_measurement=24%
given_smiles=Clc1ccc(-c2nc(-c3ccc(Cl)cc3)c3[nH]cnc3n2)cc1 observed_measurement=11%
given_smiles=Cn1c(C2CCCCC2)nc2c(-c3ccccc3)nc(-c3ccccc3)nc21 observed_measurement=0%
given_smiles=COc1ccc(-c2[nH]c(-c3ccccc3)nc3nc(C4CCCCC4)nc2-3)cc1 observed_measurement=27%

----------
biological target: Adenosine receptor A1 (Homo sapiens, UniProt P30542); assay: Activity against human adenosine A1 receptor in CHO cells assessed by the antagonizing effect of 100 nM CPA on forskolin-induced cAMP production
PARAMETER MEASURED: IC50 (nM)

given_smiles=c1ccc(-c2nc(-c3ccccc3)c3nc(C4CCCCC4)nc-3[nH]2)cc1 parameter_measured=IC50 observed_measurement=477
